system: cGAS activity in THP1 cells; assay: Cellular assay: ISRE-Gaussia luciferase reporter THP1 cells transfected with ISD (Interferon Stimulatory DNA); format: cell-based; conditions: Homo sapiens, THP-1; ISRE-Gaussia luciferase reporter THP1 cells transfected with 2 μg/mL ISD, 16 hours; read-out: THP1-ISD (Inhibition of cGAS activity in THP1 cells, IC50)
property.name: IC50

Consider the reported IC50 for these molecules:
> print(dat)
                                   molecule                  target.desc    reported.value
1  COc1cc(/C=C2\SC(=O)N(C)C2=O)c(Br)c(F)c1O  cGAS activity in THP1 cells  2500 to 10000 nM
2  Nc1ncc(COc2cc(/C=C3\Sc4ncccc4C3=O)c(Br)cc2O)cn1  cGAS activity in THP1 cells         ≤ 2500 nM
3  CN1C(=O)S/C(=C\c2cc(OCc3cnc(N)nc3)c(O)cc2Br)C1=O  cGAS activity in THP1 cells         ≤ 2500 nM
4  CN1C(=O)S/C(=C\c2cc(OCc3ccc(N)nc3)c(O)cc2Br)C1=O  cGAS activity in THP1 cells  2500 to 10000 nM
5  CN1C(=O)S/C(=C\c2cc(OCCc3cnc(N)nc3)c(O)c(F)c2Br)C1=O  cGAS activity in THP1 cells         ≤ 2500 nM

Now look at this one.
Prompt: Fill in the blank: the reported IC50 of CCOc1cc(/C=C2\SC(=O)N(C)C2=O)c(Br)cc1O is ____.
Completion: ≤ 2500 nM

----------
tested on: cGAS activity in THP1 cells; assay: Cellular assay: ISRE-Gaussia luciferase reporter THP1 cells transfected with ISD (Interferon Stimulatory DNA); type: cell-based; settings: Homo sapiens, THP-1; ISRE-Gaussia luciferase reporter THP1 cells transfected with 2 μg/mL ISD, 16 hours; read-out: THP1-ISD (Inhibition of cGAS activity in THP1 cells, IC50)
pIC50: −log10 of the molar value.
property.name: pIC50

Completed entries (count: 3):
> print(dat)
                                   molecule                  target.desc  reported.value
1  CC(Oc1cc(/C=C2\SC(=O)N(C)C2=O)c(Br)c(F)c1O)C(O)c1cnc(N)nc1 (centres unmarked) [ExB4]  cGAS activity in THP1 cells          ≤ 5.00
2  CN1C(=O)S/C(=C\c2cc(OCc3cncnc3)c(O)c(F)c2Br)C1=O [Ex185]  cGAS activity in THP1 cells    5.00 to 5.60
3  CN1C(=O)S/C(=C\c2cc(O)c(O)cc2Br)C1=O [Ex11]  cGAS activity in THP1 cells    5.00 to 5.60

Prompt: Please tell me: pIC50 of COc1cc(/C=C2\SC(=O)N(C)C2=O)c(Br)cc1O [Ex28] , system cGAS activity in THP1 cells?
Completion: ≥ 5.60

Prompt: Item: COc1cc(/C=C2\SC(=O)N(C)C2=O)c(Br)cc1NS(=O)(=O)c1cnc(N)s1 [Ex61]
Completion: ≥ 5.60

----------
biological target: recombinant cGAS (aa147-522) (Homo sapiens); construct: recombinant cGAS (aa147-522); His6-SUMO (N, cleaved yes); assay: In vitro assay for inhibition of cGAS activity (ATP consumption, Kinase Glo); details: 37° C. 20 minutes, read-out: Activity (Inhibition of cGAS enzyme activity in vitro, IC50)
Sequence (Q8N884 147-522): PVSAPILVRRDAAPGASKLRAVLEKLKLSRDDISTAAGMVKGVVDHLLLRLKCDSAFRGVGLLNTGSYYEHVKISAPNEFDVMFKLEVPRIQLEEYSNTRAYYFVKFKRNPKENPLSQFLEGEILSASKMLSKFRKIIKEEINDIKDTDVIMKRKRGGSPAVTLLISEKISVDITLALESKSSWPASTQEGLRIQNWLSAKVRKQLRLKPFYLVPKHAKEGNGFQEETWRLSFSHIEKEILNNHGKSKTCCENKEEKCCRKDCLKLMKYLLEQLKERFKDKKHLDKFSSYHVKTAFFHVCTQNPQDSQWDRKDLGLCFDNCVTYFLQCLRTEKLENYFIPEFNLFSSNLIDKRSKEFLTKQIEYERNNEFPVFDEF
This listing pairs molecules with measured IC50.

> print(dat)
                                   molecule   reported.value
1  CN1C(=O)S/C(=C\c2cc(OCc3cnc(N4CCCCC4)nc3)c(O)cc2Br)C1=O       ≥ 10000 nM
2  CN1C(=O)S/C(=C\c2cc(OCc3cnc(-c4ccncc4)nc3)c(O)cc2Br)C1=O         ≤ 500 nM
3  O=C1/C(=C/c2cc(OCc3cnc(Cl)nc3)c(O)cc2Br)Sc2ncccc21         ≤ 500 nM
4  CN1C(=O)S/C(=C\c2cc(OCC(=O)c3cnc(N)nc3)c(O)c(F)c2Br)C1=O  500 to 10000 nM
5  CN1C(=O)S/C(=C\c2cc(OCc3cnc(S)nc3)c(O)cc2Br)C1=O  500 to 10000 nM

Prompt: Record request: IC50 value, item COc1cc(/C=C2\Sc3ncncc3C2=O)c(Br)cc1O
Completion: 500 to 10000 nM

Prompt: Do the same for CC(C)C(=O)N1CCC(COc2cc(/C=C3\SC(=O)N(C)C3=O)c(Br)cc2O)CC1 please
Completion: 500 to 10000 nM

Prompt: Now give it for CC(Oc1cc(/C=C2\Sc3ncccc3C2=O)c(Br)cc1O)c1cnc(N)nc1 (stereo not drawn) too.
Completion: ≤ 500 nM

Prompt: Record: Nc1ncc(COc2cc(/C=c3\sc4nccn4c3=O)c(Br)cc2O)cn1
Completion: 500 to 10000 nM

Where do the numbers come from? From patent US12065416B2.
